Every entry's value here was drawn from the RNAGym collection of RNA variant scans (doi:10.1073/pnas.2313332121).

B1: TPR 5TU (parent)
chain: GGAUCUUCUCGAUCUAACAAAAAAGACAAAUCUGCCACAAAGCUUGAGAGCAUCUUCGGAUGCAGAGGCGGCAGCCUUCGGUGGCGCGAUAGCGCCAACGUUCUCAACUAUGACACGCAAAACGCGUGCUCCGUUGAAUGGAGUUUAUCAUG

- Variants of: B1
- assay_protocol: polymerase ribozyme fitness, log enrichment relative to wild type (log ratio); higher = more active; in vitro selection for triplet polymerase activity
Fewer inactive variants are shown than the library holds.
recorded_endpoint: polymerase ribozyme fitness (log ratio)

# annotated cases, reported polymerase ribozyme fitness (log ratio) shown
# mutations, polymerase ribozyme fitness (log ratio)
records = [
    ("C75U G92U C93G", -1.13),
    ("A23U A64C G68C", "≤ -4.2"),
    ("G58C G62C C95G", -3.72),
    ("G42A U148C", "≤ -4.2"),
]

The reported value for A28U A52C A97U A137U U139C in terms of polymerase ribozyme fitness (log ratio) is ≤ -4.2

Entry C85U C95G C108U — recorded polymerase ribozyme fitness (log ratio) = ≤ -4.2

Measured polymerase ribozyme fitness (log ratio), A26G C43U U45A G59C G88A : ≤ -4.2

Lookup result for C8A C10G C18U A21U C54A C87U A120G ; measured polymerase ribozyme fitness (log ratio): ≤ -4.2

Item: C43U G68A G86U | polymerase ribozyme fitness (log ratio): ≤ -4.2

polymerase ribozyme fitness (log ratio) measured on A28C G59U A91G U135C = ≤ -4.2

Value of measured polymerase ribozyme fitness (log ratio) for the entry G42C U44A A49U A60C C79U C96U C125A A142G : ≤ -4.2

Value of measured polymerase ribozyme fitness (log ratio) for the entry U45C C57G G59U A66U G94A : ≤ -4.2
